- assay_target: T1, human CD40 full-length (human, UniProt P25942 21-277)
- T1 construct: Also used for CD40 of Daudi cells, of CD40-expressing HEK293 cells and of the BPS CD40/NFkB HEK293 reporter cells where the row says so; also called CD4001012; CHOK1SV/CD40
- T1 sequence (P25942 21-277): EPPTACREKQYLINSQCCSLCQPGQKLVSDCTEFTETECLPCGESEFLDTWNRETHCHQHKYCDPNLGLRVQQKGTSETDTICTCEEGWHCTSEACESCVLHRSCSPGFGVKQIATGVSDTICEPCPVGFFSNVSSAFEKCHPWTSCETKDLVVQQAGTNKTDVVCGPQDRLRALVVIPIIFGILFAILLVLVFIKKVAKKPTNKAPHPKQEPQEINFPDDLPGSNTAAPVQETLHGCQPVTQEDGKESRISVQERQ
- protocol_text: flow cytometry, CHOK1SV/human CD40 cells

{"binder": "CD4001204 (Fc fusion, humanized 1D5 variant; not shown: wildtype human IgG1 Fc and its linker to the scFv) scFv: DIQMTQSPSSVSASVGDRVTITCRSSQSLLFSVNQKNYLAWYQQKPGKAPKLLIYWASTRESGVPDRFSGSGSGTDFTLTISSLQPEDFATYYCQHYYSYPWTFGQGTKVEIKGGGGSGGGGSGGGGSGGGGSQVQLVQSGAEVKKPGSSVKVSCKASGYTFSTSWISWVRQAPGQGLEWMGGILPGSGSTNYNQKFQGRVTITADTSTSTAYMELSSLRSEDTAVYYCARGDDGSYVRWYFDHWGQGTLVTVSS", "binding result": "binds"}
{"binder": "CD4001186 (Fc fusion, humanized 1D5 variant; not shown: wild-type human IgG1 Fc and the Fc-to-scFv linker) scFv: DIQMTQSPSSVSASVGDRVTITCRSSQSLLFSVNQKNYLAWYQQKPGKAPKLLIYWASTRESGVPDRFSGSGSGTDFTLTISSLQPEDFATYYCQHYYSYPWTFGQGTKVEIKGGGGSGGGGSGGGGSGGGGSQVQLVQSGAEVKKPGSSVKVSCKASGYTFSTSWIEWIRQAPGQGLEWMGSILPGSGSTNYNEKFKGKVTITADTSTSTAYMELSSLRSEDTAVYYCARGDDGSYVRWYFDHWGQGTLVTVSS", "binding result": "binds"}
{"binder": "CD4001207 (Fc fusion, humanized 1D5 variant; not shown: wildtype human IgG1 Fc and its linker to the scFv) scFv: DIQMTQSPSSVSASVGDRVTITCRSSQSLLFSVNQKNYLAWYQQKPGKAPKLLIYWASTRESGVPDRFSGSGSGTDFTLTISSLQPEDFATYYCQHYYSYPWTFGQGTKVEIKGGGGSGGGGSGGGGSGGGGSQVQLVQSGAEVKKPGSSVKVSCKASGYTFSTSWIEWIRQAPGQGLEWMGSILPGSGSTNYAEKFKGKVTITADESTSTAYMELSSLRSEDTAVYYCARGDDGSYVRWYFDHWGQGTLVTVSS", "binding result": "binds"}
